- ASSAY TARGET: ΔF508-CFTR (Homo sapiens, UniProt P13569, DEL508-508)
- Construct: host or cells: CFBE41o-, doxycycline-inducible
- Sequence (P13569 with tags, fused parts or gaps DEL508-508): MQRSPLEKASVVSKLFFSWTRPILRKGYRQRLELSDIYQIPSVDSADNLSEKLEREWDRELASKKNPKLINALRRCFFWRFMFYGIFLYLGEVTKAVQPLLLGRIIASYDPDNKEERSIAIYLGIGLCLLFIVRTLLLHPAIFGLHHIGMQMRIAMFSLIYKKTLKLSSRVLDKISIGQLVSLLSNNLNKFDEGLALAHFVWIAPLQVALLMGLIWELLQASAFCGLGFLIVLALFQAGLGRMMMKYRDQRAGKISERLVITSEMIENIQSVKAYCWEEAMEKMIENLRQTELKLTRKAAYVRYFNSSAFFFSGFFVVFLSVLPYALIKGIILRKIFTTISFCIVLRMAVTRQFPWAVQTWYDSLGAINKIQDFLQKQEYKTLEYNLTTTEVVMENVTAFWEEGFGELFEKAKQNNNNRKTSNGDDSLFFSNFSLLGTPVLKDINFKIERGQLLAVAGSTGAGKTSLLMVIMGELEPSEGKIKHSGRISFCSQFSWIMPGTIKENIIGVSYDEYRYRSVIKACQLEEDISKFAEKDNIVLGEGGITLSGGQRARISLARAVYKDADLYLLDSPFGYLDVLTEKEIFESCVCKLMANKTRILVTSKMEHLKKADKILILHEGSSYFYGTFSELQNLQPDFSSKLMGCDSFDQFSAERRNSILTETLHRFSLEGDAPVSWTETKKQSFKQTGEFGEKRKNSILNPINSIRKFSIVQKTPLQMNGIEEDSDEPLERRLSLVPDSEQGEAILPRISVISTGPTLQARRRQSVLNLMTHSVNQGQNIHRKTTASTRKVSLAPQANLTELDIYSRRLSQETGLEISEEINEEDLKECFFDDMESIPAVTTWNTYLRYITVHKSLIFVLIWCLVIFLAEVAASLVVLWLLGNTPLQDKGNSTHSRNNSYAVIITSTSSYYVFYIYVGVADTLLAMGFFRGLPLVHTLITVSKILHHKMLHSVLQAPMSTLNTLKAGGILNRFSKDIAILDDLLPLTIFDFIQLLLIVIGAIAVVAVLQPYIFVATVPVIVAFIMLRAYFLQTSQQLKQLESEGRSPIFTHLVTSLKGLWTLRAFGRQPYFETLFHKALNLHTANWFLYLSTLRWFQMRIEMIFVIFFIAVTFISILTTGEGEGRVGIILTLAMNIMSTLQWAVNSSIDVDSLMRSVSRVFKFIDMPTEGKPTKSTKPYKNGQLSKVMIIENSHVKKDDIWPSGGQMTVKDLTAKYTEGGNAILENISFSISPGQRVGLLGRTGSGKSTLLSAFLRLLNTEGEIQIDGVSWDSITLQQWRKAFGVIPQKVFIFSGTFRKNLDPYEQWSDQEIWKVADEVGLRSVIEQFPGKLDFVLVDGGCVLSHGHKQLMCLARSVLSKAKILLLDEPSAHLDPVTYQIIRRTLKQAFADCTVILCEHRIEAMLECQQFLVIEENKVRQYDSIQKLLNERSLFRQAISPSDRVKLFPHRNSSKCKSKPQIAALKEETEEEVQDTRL
- TEST NAME: CFTR cell surface levels using HRP-tagged ΔF508-CFTR expressing CFBE cells, in the presence of a co-corrector
- Format: cell-based
- TEST SETTINGS: HRP-tagged ΔF508-CFTR CFBE cells, in the presence of 3 μM co-corrector; read-out: EC50
QUANTITY: EC50 (nM)

>  <COMPOUND>
CN(C)S(=O)(=O)NC(=O)c1cc(N2CCC3(CC2)CC(N2CCOCC2)CO3)c2c(C3CCC3)nn(-c3ccc(F)cc3)c2n1 (stereo not shown)

>  <RECORDED MEASUREMENT>
221

$$$$
>  <COMPOUND>
COCCS(=O)(=O)NC(=O)c1cc(-c2ccc(N3CCC(C#N)CC3)nc2)c2c(OC3CCOC3)nn(-c3ccccc3)c2n1 (stereo not shown)

>  <RECORDED MEASUREMENT>
138

$$$$
>  <COMPOUND>
CO[C@H]1CC[C@H](Oc2cc(C(=O)NS(C)(=O)=O)nc3c2c(C2CCC2)nn3-c2ccccc2)CC1

>  <RECORDED MEASUREMENT>
324

$$$$
>  <COMPOUND>
COCCS(=O)(=O)NC(=O)c1cc(N2CCC(COC)CC2)c2c(C(C)C)nn(-c3ccnc(N4CCOCC4)c3)c2n1

>  <RECORDED MEASUREMENT>
231

$$$$

Source listed as patent US10259810B2.
